- Test system: Porcine ventricle myofibrils (ventricular myosin ATPase) (Sus scrofa)
- Construct: Myofibrils from porcine cardiac muscle was isolated from the left ventricle of Yucatan minipigs; tissue Exemplar Genetics; host or cells: left ventricle of Yucatan minipigs, myofibrils prepared in house
- Sequence (P79293 whole entry): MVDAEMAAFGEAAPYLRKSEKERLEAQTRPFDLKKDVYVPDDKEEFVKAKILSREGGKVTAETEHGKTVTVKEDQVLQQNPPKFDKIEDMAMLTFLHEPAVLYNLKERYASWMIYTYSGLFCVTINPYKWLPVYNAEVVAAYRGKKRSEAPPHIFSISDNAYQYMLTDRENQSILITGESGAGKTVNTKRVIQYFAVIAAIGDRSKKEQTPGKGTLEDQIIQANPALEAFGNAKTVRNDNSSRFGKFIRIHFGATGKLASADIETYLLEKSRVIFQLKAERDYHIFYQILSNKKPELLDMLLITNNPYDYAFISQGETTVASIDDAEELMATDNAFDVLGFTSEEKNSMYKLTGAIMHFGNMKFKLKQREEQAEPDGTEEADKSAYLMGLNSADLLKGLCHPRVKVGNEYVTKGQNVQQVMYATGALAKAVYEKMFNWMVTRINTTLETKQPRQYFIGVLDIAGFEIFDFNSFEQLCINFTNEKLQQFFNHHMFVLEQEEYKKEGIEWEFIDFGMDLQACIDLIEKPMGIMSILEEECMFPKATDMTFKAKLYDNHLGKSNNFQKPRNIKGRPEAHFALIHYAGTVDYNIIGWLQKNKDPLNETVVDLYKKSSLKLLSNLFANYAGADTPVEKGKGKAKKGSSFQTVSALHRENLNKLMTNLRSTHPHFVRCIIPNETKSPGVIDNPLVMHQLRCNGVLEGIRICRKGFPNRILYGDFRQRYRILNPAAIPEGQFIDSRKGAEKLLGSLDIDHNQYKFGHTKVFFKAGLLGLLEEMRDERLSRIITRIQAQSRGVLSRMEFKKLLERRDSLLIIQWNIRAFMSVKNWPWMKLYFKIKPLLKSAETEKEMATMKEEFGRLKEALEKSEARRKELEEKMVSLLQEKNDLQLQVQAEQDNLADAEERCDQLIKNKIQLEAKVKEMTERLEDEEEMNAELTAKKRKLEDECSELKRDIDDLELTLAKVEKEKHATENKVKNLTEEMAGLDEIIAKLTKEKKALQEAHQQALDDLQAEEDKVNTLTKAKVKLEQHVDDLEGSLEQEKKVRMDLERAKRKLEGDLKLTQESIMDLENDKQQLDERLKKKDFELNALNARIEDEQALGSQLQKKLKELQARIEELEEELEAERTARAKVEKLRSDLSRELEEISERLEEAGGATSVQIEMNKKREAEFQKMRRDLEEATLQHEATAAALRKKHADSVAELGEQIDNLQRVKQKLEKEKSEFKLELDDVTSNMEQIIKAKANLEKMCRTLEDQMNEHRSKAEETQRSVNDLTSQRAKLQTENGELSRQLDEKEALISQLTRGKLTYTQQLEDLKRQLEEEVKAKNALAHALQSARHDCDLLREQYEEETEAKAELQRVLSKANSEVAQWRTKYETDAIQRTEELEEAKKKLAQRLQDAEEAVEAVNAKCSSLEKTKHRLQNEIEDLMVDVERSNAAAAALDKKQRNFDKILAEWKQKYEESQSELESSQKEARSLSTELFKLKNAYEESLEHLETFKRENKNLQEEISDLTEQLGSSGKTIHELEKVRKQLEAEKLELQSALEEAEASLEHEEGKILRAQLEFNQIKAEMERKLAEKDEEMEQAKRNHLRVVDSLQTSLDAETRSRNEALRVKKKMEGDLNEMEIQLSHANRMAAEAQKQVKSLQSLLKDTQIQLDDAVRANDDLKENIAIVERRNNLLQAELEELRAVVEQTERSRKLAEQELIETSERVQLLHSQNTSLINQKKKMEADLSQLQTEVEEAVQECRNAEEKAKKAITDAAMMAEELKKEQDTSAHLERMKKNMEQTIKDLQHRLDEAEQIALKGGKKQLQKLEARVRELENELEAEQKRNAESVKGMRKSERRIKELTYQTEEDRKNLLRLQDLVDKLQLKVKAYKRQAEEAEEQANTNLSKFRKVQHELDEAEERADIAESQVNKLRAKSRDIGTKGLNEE
- Assay: Myofibril ATPase assay, porcine ventricle myofibrils
- Format: biochemical, porcine (Yucatan minipigs)
- Particulars: Y75 value (no ‡ mark); porcine ventricle myofibrils
Metric: Ventricular EC25 (nM)

[P] Cc1c(CC(=O)N[C@H](CO)c2ccc(F)cc2F)c(=O)[nH]c2cccc(C#N)c12 (single isomer, unassigned)
[Q] Cc1c([C@@H](C)C(=O)N[C@H](C)c2ncc(C#N)cc2F)c(=O)[nH]c2ccc(F)c(F)c12 (relative stereo)
Returns: the argument ( P or Q ) having the larger Ventricular EC25. Answer by stating the label of the chosen item.
Q
(Q: 100000 nM, P: 320 nM)

[A] C[C@H](NC(=O)Cc1cc2cc(O)ccc2[nH]c1=O)c1ccc(F)cc1F
[B] Cc1c(C2(C(=O)N[C@@H](C)c3ncc(C#N)cc3F)CC2)c(=O)[nH]c2cccc(C#N)c12 (single isomer, unassigned)
Returns: the argument ( A or B ) having the larger Ventricular EC25. Answer by stating the label of the chosen item.
A

[I] Cc1c(CC(=O)N[C@H](C)c2ccc(C#N)nn2)c(=O)[nH]c2cccc(C#N)c12
[II] Cc1c(C(F)(F)C(=O)N[C@H](C)c2ncc(C#N)cn2)c(=O)[nH]c2ccc(F)c(C#N)c12 (single isomer, unassigned)
[III] C[C@@H](NC(=O)C1(c2cc3c(F)c(F)ccc3[nH]c2=O)CC1)c1ccc(C#N)cn1 (single isomer, unassigned)
[IV] Cc1nc(C#N)cnc1[C@H](C)NC(=O)Cc1cc2cc(F)c(F)cc2[nH]c1=O (single isomer, unassigned)
[V] Cc1c(CC(=O)N[C@@H](C)c2ccc(F)cc2F)c(=O)[nH]c2ccc(Br)cc12
List items by Ventricular EC25 in falling order. List labels; respect the requested ordering.
III, I, II, IV, V
(III: 31200 nM, I: 2700 nM, II: 1830 nM, IV: 950 nM, V: 250 nM)

---

- Test system: Rabbit Psoas myofibrils (skeletal myosin ATPase)
- Assay: Myofibril ATPase assay, rabbit psoas (skeletal) myofibrils
- Assay type: biochemical
- Particulars: Y75 value (no ‡ mark); rabbit psoas myofibrils
Metric: Skeletal EC25 (nM)

Consider the following illustrative entries.
Compound	Skeletal EC25 / nM
C[C@@H](NC(=O)Cc1cc2c(F)c(F)ccc2[nH]c1=O)c1ncc(F)cc1F	290
CC[C@@H](NC(=O)Cc1c(C)c2c(C)c(F)ccc2[nH]c1=O)c1ncc(C#N)cn1 (single isomer, unassigned)	250
Cc1c(CC(=O)N[C@H]2COc3cc(C#N)cnc32)c(=O)[nH]c2ccc(F)cc12	220

[A] Cc1cccc2[nH]c(=O)c(CC(=O)N[C@@H](C)c3ccc(C#N)cn3)c(C#N)c12
[B] Cc1c(CC(=O)N[C@H](C)c2ncc(C#N)cc2F)c(=O)[nH]c2ccc(F)c(C(F)(F)F)c12
[C] COc1ccc2[nH]c(=O)c(CC(=O)N[C@@H](C)c3ccc(F)cc3F)c(C)c2c1C#N
[D] Cc1cc(C#N)ncc1[C@@H](C)NC(=O)Cc1c(C)c2c(C)c(F)ccc2[nH]c1=O
List items by Skeletal EC25 in falling order. List labels; respect the requested ordering.
C, A, B, D
(C: 660 nM, A: 260 nM, B: 40 nM, D: 20 nM)

---

The following compounds are shown together with reported Ventricular EC25 values.
- Test system: Porcine ventricle myofibrils (ventricular myosin ATPase) (Sus scrofa)
- Construct: Myofibrils from porcine cardiac muscle was isolated from the left ventricle of Yucatan minipigs; tissue Exemplar Genetics; host or cells: left ventricle of Yucatan minipigs, myofibrils prepared in house
- Assay: Myofibril ATPase assay, porcine ventricle myofibrils
- Type: biochemical, porcine (Yucatan minipigs)
- Particulars: ‡ Y125 value, not a Y75 value (125% activity relative to no compound); porcine ventricle myofibrils

Compound	Ventricular EC25
C[C@H](NC(=O)Cc1cc2c(C#N)c(F)ccc2[nH]c1=O)c1ncc(C#N)cn1 (single isomer, unassigned)	100.00‡ μM
Cc1c(C(F)(F)C(=O)N[C@@H](C)c2cccc(C#N)n2)c(=O)[nH]c2ccc(F)cc12 (single isomer, unassigned)	100.00‡ μM
C[C@H](NC(=O)[C@@H](C)c1cc2cc(F)ccc2[nH]c1=O)c1ccc(F)cc1F (single isomer, unassigned)	44.26‡ μM
Cc1c(C2(C(=O)N[C@H](C)c3nccc(C#N)n3)CC2)c(=O)[nH]c2ccc(F)c(F)c12 (single isomer, unassigned)	77.92‡ μM
C[C@H](NC(=O)C(F)(F)c1cc2cc(F)ccc2[nH]c1=O)c1cccc(C#N)n1 (single isomer, unassigned)	68.39‡ μM
Cc1c(C(F)(F)C(=O)NC(C)c2cccc(C#N)n2)c(=O)[nH]c2ccc(F)c(F)c12 (single isomer, unassigned)	67.27‡ μM

Please provide the recorded Ventricular EC25 for C[C@H](NC(=O)C(F)(F)c1cc2c(F)c(F)ccc2[nH]c1=O)c1cccc(C#N)n1 (single isomer, unassigned) , tested on Porcine ventricle myofibrils (ventricular myosin ATPase) (Sus scrofa).
100.00‡ μM

Please provide the recorded Ventricular EC25 for C[C@H](NC(=O)C1(c2cc3cc(F)ccc3[nH]c2=O)CC1)c1cc(C#N)ccn1 (single isomer, unassigned) , tested on Porcine ventricle myofibrils (ventricular myosin ATPase) (Sus scrofa).
100.00‡ μM

Please provide the recorded Ventricular EC25 for Cc1c(C2(C(=O)N[C@H](C)c3cccc(C#N)n3)CC2)c(=O)[nH]c2ccc(F)c(F)c12 (single isomer, unassigned) , tested on Porcine ventricle myofibrils (ventricular myosin ATPase) (Sus scrofa).
58.38‡ μM

Please provide the recorded Ventricular EC25 for Cc1c(C2(C(=O)N[C@@H](C)c3nccc(C#N)n3)CC2)c(=O)[nH]c2ccc(F)c(F)c12 (single isomer, unassigned) , tested on Porcine ventricle myofibrils (ventricular myosin ATPase) (Sus scrofa).
77.57‡ μM

Please provide the recorded Ventricular EC25 for Cc1c(C2(C(=O)N[C@@H](C)c3cc(C#N)ccn3)CC2)c(=O)[nH]c2ccc(F)cc12 (single isomer, unassigned) , tested on Porcine ventricle myofibrils (ventricular myosin ATPase) (Sus scrofa).
100.00‡ μM

Please provide the recorded Ventricular EC25 for C[C@H](NC(=O)C1(c2cc3cc(F)ccc3[nH]c2=O)CC1)c1cccc(C#N)n1 (single isomer, unassigned) , tested on Porcine ventricle myofibrils (ventricular myosin ATPase) (Sus scrofa).
85.38‡ μM

---

- System: Porcine atria myofibrils (atrial myosin ATPase)
- Assay: Myofibril ATPase assay, porcine atria myofibrils
- Assay type: biochemical
- Particulars: Y75 value: concentration required to reduce myosin ATP-ase activity by 25%; Porcine Atria Prep pCa 25 GEOM_MEAN
Metric: Atrial EC25 (µM)

Molecule	Atrial EC25 [µM]
C[C@H](NC(=O)Cc1cc2c(F)c(F)ccc2[nH]c1=O)c1cc(C#N)c(F)s1 (single isomer, unassigned)	100.00

[a] CC(NC(=O)Cc1cc2c(F)c(F)ccc2[nH]c1=O)c1nc(C#N)cs1 (single isomer, unassigned)
[b] C[C@H](NC(=O)Cc1cc2c(F)c(F)ccc2[nH]c1=O)c1nc(C#N)co1 (single isomer, unassigned)
[c] Cc1c(CC(=O)NC(C)c2cc(C#N)c(F)s2)c(=O)[nH]c2ccc(F)c(F)c12 (stereo not shown)
List items by Atrial EC25 in falling order. List labels; respect the requested ordering.
b, a, c

---

- Test system: Porcine ventricle myofibrils (ventricular myosin ATPase) (Sus scrofa)
- Construct: Myofibrils from porcine cardiac muscle was isolated from the left ventricle of Yucatan minipigs; tissue Exemplar Genetics; host or cells: left ventricle of Yucatan minipigs, myofibrils prepared in house
- Assay: Myofibril ATPase assay, porcine ventricle myofibrils
- Format: biochemical, porcine (Yucatan minipigs)
- Particulars: Y75 value (no ‡ mark); porcine ventricle myofibrils
Metric: Ventricular EC25 (nM)

Compound	Unit abbrev	Ventricular EC25
Cc1c(C(F)(F)C(=O)N[C@H](C)c2ncc(C#N)cn2)c(=O)[nH]c2ccc(F)c(C(F)(F)F)c12 (single isomer, unassigned)	nM	1620
Cc1c(CC(=O)N[C@@H](C)c2ncc(C#N)cc2F)c(=O)[nH]c2cccc(F)c12	nM	100
Cc1c(C(F)(F)C(=O)N[C@@H]2COc3cc(C#N)cc(F)c32)c(=O)[nH]c2ccc(F)cc12 (single isomer, unassigned)	nM	34880

[P] Cc1c(CC(=O)N[C@H](C)c2ncc(C#N)cc2F)c(=O)[nH]c2ccc(F)c(C3CC3)c12
[Q] CC(NC(=O)C1(c2cc3c(F)c(F)ccc3[nH]c2=O)CC1)c1cccc(C#N)n1 (single isomer, unassigned)
[R] C[C@H](NC(=O)Cc1c(C2CC2)c2cc(F)ccc2[nH]c1=O)c1ccc(F)cc1F
Which order do these items take when sorted by rising Ventricular EC25? List them. List labels; respect the requested ordering.
P, R, Q

[A] C[C@H](NC(=O)Cc1c(C(F)F)c2c(F)c(F)ccc2[nH]c1=O)c1ccc(F)cc1F
[B] Cc1c(CC(=O)N[C@H]2COc3cc(C#N)cnc32)c(=O)[nH]c2ccc(F)cc12
[C] Cc1c(CC(=O)N[C@H](C)c2ncc(C#N)cc2F)c(=O)[nH]c2ccc(Cl)cc12 (single isomer, unassigned)
Which order do these items take when sorted by rising Ventricular EC25? List them. List labels; respect the requested ordering.
A, C, B
(A: 90 nM, C: 230 nM, B: 760 nM)

[a] Cc1c(C2(C(=O)N[C@H](C)c3ncc(C#N)cc3F)CC2)c(=O)[nH]c2cccc(C#N)c12 (single isomer, unassigned)
[b] C[C@H](NC(=O)[C@H](C)c1c(C(F)(F)F)c2c(F)cccc2[nH]c1=O)c1ccc(F)cc1F (single isomer, unassigned)
[c] Cc1c(CC(=O)N[C@@H](C)c2ncc(C#N)cc2F)c(=O)[nH]c2ccc(F)c(C#N)c12
[d] Cc1c(CC(=O)N[C@@H](C)c2ccc(F)cc2F)c(=O)[nH]c2ccc(F)c(C#N)c12
[e] C[C@@H](NC(=O)Cc1cc2cc(F)c(F)cc2[nH]c1=O)c1ncc(C#N)cc1F (single isomer, unassigned)
Which order do these items take when sorted by rising Ventricular EC25? List them. List labels; respect the requested ordering.
c, d, e, a, b
(c: 40 nM, d: 100 nM, e: 310 nM, a: 700 nM, b: 4120 nM)
